Sourced from PubChem BioAssay AID2060328

System: MDA-MB-231 multicell spheroids, viability (%T/C)
methodNotes: Anticancer human tumor MDA-MB-231 cell line growth inhibition [IpAb];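 also: viability read after seven days of drug exposure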;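 as to viability, T/C: 100% = DMSO vehicle control viability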
setupConditions: second compound 1 µM; first compound 0.001 µM; stronger effect = lower value
Task for the reader: assign each of the following molecules its reported viability, T/C.
Answers are plain numbers, in %.

Known viability, T/C results, listed for orientation:
{"molecule": "CC(C)n1nc(-c2ccc3oc(N)nc3c2)c2c(N)ncnc21 + CCN1CCN(Cc2ccc(Nc3ncc(F)c(-c4cc(F)c5nc(C)n(C(C)C)c5c4)n3)nc2)CC1", "unitSpec": "%", "viability, T/C": 45}
{"molecule": "Cn1ncnc1[C@H]1c2n[nH]c(=O)c3cc(F)cc(c23)N[C@@H]1c1ccc(F)cc1 + CC(C)NCC(C(=O)N1CCN(c2ncnc3c2C(C)CC3O)CC1)c1ccc(Cl)cc1", "unitSpec": "%", "viability, T/C": 68.9}
{"molecule": "Cn1ncnc1[C@H]1c2n[nH]c(=O)c3cc(F)cc(c23)N[C@@H]1c1ccc(F)cc1 + CCN1CCN(Cc2ccc(Nc3ncc(F)c(-c4cc(F)c5nc(C)n(C(C)C)c5c4)n3)nc2)CC1", "unitSpec": "%", "viability, T/C": 49.3}

# evaluate next
Prompt: Field: viability, T/C (MDA-MB-231 multicell spheroids, viability (%T/C)). Entry: CC(C)n1nc(-c2ccc3oc(N)nc3c2)c2c(N)ncnc21 + CC(C)NCC(C(=O)N1CCN(c2ncnc3c2C(C)CC3O)CC1)c1ccc(Cl)cc1
Completion: 59

====

Task for the reader: assign each of the following compounds its reported IC50.
System: MDA-MB-231 multicell spheroids, viability (%T/C)
methodNotes: Anticancer human tumor MDA-MB-231 cell line growth inhibition [IpAb];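 also: viability read after seven days of drug exposure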
setupConditions: curve of first compound; second compound 1 µM
Numbers only, in nM.

{"compound": "CC(=O)c1c(C)c2cnc(Nc3ccc(N4CCNCC4)cn3)nc2n(C2CCCC2)c1=O + CC(C)NCC(C(=O)N1CCN(c2ncnc3c2C(C)CC3O)CC1)c1ccc(Cl)cc1", "IC50 (nM)": 7.21}

Prompt: Requested read-out: IC50. Entry: Cn1ncc(Cl)c1-c1cc(C(=O)NC(CN)Cc2cccc(F)c2)sc1Cl (stereo not given) + CC(C)NCC(C(=O)N1CCN(c2ncnc3c2C(C)CC3O)CC1)c1ccc(Cl)cc1
Completion: 1100

====

Tested on: MDA-MB-231 multicell spheroids, viability (%T/C)
methodNotes: Anticancer human tumor MDA-MB-231 cell line growth inhibition [IpAb];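 also: viability read after seven days of drug exposure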;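 as to viability, T/C: 100% = DMSO vehicle control viability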
setupConditions: second compound 3.16 µM; first compound 0.0316 µM; stronger effect = lower value
Task for the reader: assign each of the following molecules its reported viability, T/C.
Numbers only, in %.

Give viability, T/C for all molecules that follow.
1. COc1c(OCCCN2CCOCC2)ccc2c3n(c(=NC(=O)c4cnc(N)nc4)nc12)CCN3 + CC(C)NCC(C(=O)N1CCN(c2ncnc3c2C(C)CC3O)CC1)c1ccc(Cl)cc1
2. CC(C)n1nc(-c2ccc3oc(N)nc3c2)c2c(N)ncnc21 + CC(C)NCC(C(=O)N1CCN(c2ncnc3c2C(C)CC3O)CC1)c1ccc(Cl)cc1
3. C=CC(=O)N1CCN(c2nc(=O)n(-c3c(C)ccnc3C(C)C)c3nc(-c4c(O)cccc4F)c(F)cc23)C(C)C1 (centres undefined) + CC(C)NCC(C(=O)N1CCN(c2ncnc3c2C(C)CC3O)CC1)c1ccc(Cl)cc1
4. CC1(C)CCC(CN2CCN(c3ccc(C(=O)NS(=O)(=O)c4ccc(NCC5CCOCC5)c([N+](=O)[O-])c4)c(Oc4cnc5[nH]ccc5c4)c3)CC2)=C(c2ccc(Cl)cc2)C1 + CC(C)NCC(C(=O)N1CCN(c2ncnc3c2C(C)CC3O)CC1)c1ccc(Cl)cc1

Completion:
[37.1, 26.1, 57.2, 60.8]
